These measurements were taken from patent US20190367619A1.

# testSystem: T1, cynomolgus galectin-10-His, YRT isoform (cynomolgus)
# T1 construct: not shown: His tag
# T1 chain: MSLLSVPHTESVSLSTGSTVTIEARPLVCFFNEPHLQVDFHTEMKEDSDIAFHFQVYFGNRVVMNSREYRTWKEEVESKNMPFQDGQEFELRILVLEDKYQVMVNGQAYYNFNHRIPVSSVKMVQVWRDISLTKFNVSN
# protocolSummary: ELISA, Gal10-His coated at 1 ug/mL, VHH titrated, anti-Myc-HRP
Answer each item with its documented Bmax (OD values).
# unit: OD | format: bare number

The binder VHH clone 13C10 (VHH, Purified VHH-Myc-His from E. coli; not shown: Myc and His tags of the phagemid vector) VHH: QLQLVESGGGLVQAGGSLKLSCAASGRTFNPYTMGWFRQAPGKEREFVAVVSSGGGTYYANSVKGRFTISRDNAKATVYLQMNSLKPEDTAVYYCAAGSIFRWSPMSYDYWGQGTQVTVSS showed Bmax (OD values) equal to 2.7

The binder VHH clone 13A05 (VHH, Purified VHH-Myc-His from E. coli; not shown: Myc and His tags of the phagemid vector) VHH: QVQLVESGGGLVQAGGSLRLSCAASSSSYSMSWFRQAPGKEREFVAIISWSGGTYYDDSVKGRFTVSRDNAKNTVYLQMNSLKPEDTAVYYCAAGTQFSFSYREYDYWGQGTQVTVSS showed Bmax (OD values) equal to 2.9

The binder VHH clone 13C06 (VHH, Purified VHH-Myc-His from E. coli; not shown: Myc and His tags of the phagemid vector) VHH: QLQLVESGGGLVQAGGSLRLSCAASSSSYSMGWFRQAPGKEREFVATISWSGGFYYDDSVKGRFTVSRDNAKNTVYLQMNSLKPEDTAVYYCAAGTRFSFSYREYHYWGQGTQVTVSS showed Bmax (OD values) equal to 2.9

The binder VHH clone 13E09 (VHH, Purified VHH-Myc-His from E. coli; not shown: Myc and His tags of the phagemid vector) VHH: QVQVQESGGGLVQAGNSLRLSCAASGRTFSSYHMMWFRQAPGKEREFVAAIAWRGGTYCANSVKGRCTISRDNAKDTVYLQMNSLKPEDTAVYFCAASLRYVFDPSAMDYWGKGTLVTVSS showed Bmax (OD values) equal to 3

The binder VHH clone 1D06 (VHH, not shown: large carriers, Positive control from the previous human-specific panel; also called 1D6) VHH: QLQLVESGGGLVQPGGSLRLSCAASENSVSTYAMGWFRQAPGKEREFVAAITRAGGNTYNADSVKGRFTISRDNAENTIYLQMNSLKPEDTAVYSCAAGPRYSTISTMFPYWGQGTQVTVSS showed Bmax (OD values) equal to 0

The binder VHH clone 14E02 (VHH, Purified VHH-Myc-His from E. coli; not shown: Myc and His tags of the phagemid vector) VHH: QVQLVESGGGLAQAGGSLRLSCVASGRAAGTYSMAWFRQAPGKEREFVAAITWAGGYTYGADSEKGRFTISRDNAKNTVYLQMNSLKPEDTAVYSCAGGRLFTSQSSAYQYWGQGTQVTVSS showed Bmax (OD values) equal to 2.1

The binder VHH clone 13C07 (VHH, Purified VHH-Myc-His from E. coli; not shown: Myc and His tags of the phagemid vector) VHH: QLQVVESGGGLVQAGGSLRLSCAASSSAYSMAWFRQAPGKEREFVAAITWSGGSHHDDSVKGRFTISRDGAKNTVYLQMNSLKPEDTAVYYCAVGTLYSFSYRDYDYWGQGTQVTVSS showed Bmax (OD values) equal to 2.8
